Test: Comparative bioavailability: single oral 150, 300, 450 mg MNTX tablets vs 12 mg SC injection, crossover
Type: in vivo, human
Details: human, plasma, po, 300 mg, MNTX 300 mg Tablet, single oral dose, harmonic mean
Endpoint label: half-life (h)
Answers are plain numbers, in h.

Data point: `C[N@+]1(CC2CC2)CC[C@]23c4c5ccc(O)c4O[C@H]2C(=O)CC[C@@]3(O)[C@H]1C5.[Br-]` ; half-life = 14.2

---

Assay: Comparative bioavailability: single oral 150, 300, 450 mg MNTX tablets vs 12 mg SC injection, crossover
Format: in vivo, human
Details: human, plasma, po, 450 mg, MNTX 450 mg Tablet, single oral dose, mean; read-out: AUC0-t
Endpoint label: AUC(0-t)

Sure, the documented AUC(0-t) for C[N@+]1(CC2CC2)CC[C@]23c4c5ccc(O)c4O[C@H]2C(=O)CC[C@@]3(O)[C@H]1C5.[Br-] [MNTX] is 367 ng·h/mL
